Some molecules, each annotated with its measured inhibition.
- Target Or Test System: Beta-glucosidase A (Caldicellulosiruptor saccharolyticus) (UniProt P10482)
- Sequence (P10482 whole entry): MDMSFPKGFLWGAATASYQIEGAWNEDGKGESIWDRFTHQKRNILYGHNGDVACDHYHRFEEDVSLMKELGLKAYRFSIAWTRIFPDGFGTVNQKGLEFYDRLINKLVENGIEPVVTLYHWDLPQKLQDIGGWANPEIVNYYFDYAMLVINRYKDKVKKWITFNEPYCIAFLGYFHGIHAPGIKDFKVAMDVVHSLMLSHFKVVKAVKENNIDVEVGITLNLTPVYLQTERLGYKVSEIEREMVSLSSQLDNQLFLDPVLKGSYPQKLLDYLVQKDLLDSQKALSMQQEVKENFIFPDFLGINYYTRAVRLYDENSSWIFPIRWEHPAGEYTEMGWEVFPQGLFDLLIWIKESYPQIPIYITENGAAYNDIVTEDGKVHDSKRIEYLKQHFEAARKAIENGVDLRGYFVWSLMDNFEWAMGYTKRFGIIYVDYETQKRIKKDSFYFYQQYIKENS
- Protocol Notes: Percentage inhibition of Beta-Glucosidase from Caldocellum saccharol. at 1 mM
Only the number, expressed in %, is required.

- Molecule: "OCC(O)[C@H]1NC[C@H](O)[C@@H]1O (some centres not stated)"
  inhibition, %: 40

Query: Hello, please tell me recorded inhibition for this one: CC(=O)N(Cc1ccccc1)CC1NCC(O)C1O (configuration not stated)
Reply: 43

Query: Recall and state the measured inhibition for CC(NCC1NCC(O)C1O)C(O)(c1ccccc1)c1ccccc1 (configuration not stated) .
Reply: 72

Query: Look up and report measured inhibition for this entry: OC1CNC(CNC2CCCC2)C1O (configuration not stated)
Reply: 29

Query: Name the recorded inhibition of the molecule listed here: OC1CNC(CNCn2ccnc2)C1O (configuration not stated)
Reply: 76

Query: Answer with the recorded inhibition for the molecule listed here: C[C@@H](NCC1NCC(O)C1O)c1ccccc1 (some centres not stated)
Reply: 49

Query: Give inhibition for the following molecule: OC1CNC(CNCc2cccs2)C1O (configuration not stated)
Reply: 38
